Value source: patent US10934312B2

- Tested on: HIV-1 (NL4-3 strain)
- METHOD: Assay for Inhibition of HIV Replication (VIKING, MT4-gag-GFP reporter cells)
- Format: cell-based
- MEASUREMENT CONTEXT: Human immunodeficiency virus 1, NL43, 0% normal human serum; MT4-GFP cells infected with HIV-1 NL4-3; infected cells at 48 h / 24 h; read-out: VIKING IP50 (nM) with 0% NHS
- Description: This assay may be useful for assessing the ability of a compound of the present invention to inhibit HIV replication. The assay is a kinetic assay that employs a reporter cell line (MT4-gag-GFP) to quantify the number of new cells infected in each round of replication. MT4-GFP cells (250,000 cells/ml) are bulk-infected with HIV-1 (NL4-3 strain) at low multiplicity of infection (MOI) in RPMI+10% FBS for 24 hours. […]
List of IC50 values.
Give the value in nM but do not write nM after it.

COMPOUND	MEASUREMENT KIND	OBSERVED VALUE
CCN1CN2CC(OC)c3c(C(=O)NCc4ccc(F)cc4F)c(=O)c(O)c(n32)C1=O (stereo not shown) [Compound 22]	IC50	2.1
COC1CN2CN(CC3CC3)C(=O)c3c(O)c(=O)c(C(=O)NCc4ccc(F)c(Cl)c4)c1n32 (single isomer, unassigned)	IC50	1
CN1CN2CCc3c(C(=O)NCc4c(F)cc(F)cc4F)c(=O)c(O)c(n32)C1=O	IC50	2.9

Next:
Query: IC50; subject: COCCN1CN2CC(OC)c3c(C(=O)NCc4ccc(F)cc4F)c(=O)c(O)c(n32)C1=O (single isomer, unassigned) 1.4

---

- Test system: HIV-1 (NL4-3 strain)
- METHOD: Assay for Inhibition of HIV Replication (VIKING, MT4-gag-GFP reporter cells)
- Assay type: cell-based
- MEASUREMENT CONTEXT: Human immunodeficiency virus 1, NL43, 0% normal human serum; MT4-GFP cells infected with HIV-1 NL4-3; infected cells at 48 h / 24 h; read-out: VIKING IP50 (nM) with 0% NHS
Recorded IC50 for the following compounds
# number only, unit nM dropped from output

These recorded examples may help you get a feel for the data.
COMPOUND	IC50, nM
CN1CN2CCc3c(C(=O)NCc4ccc(F)cc4F)c(=O)c(O)c(n32)C1=O	1.6
COC1CN2CN(CC3CC3)C(=O)c3c(O)c(=O)c(C(=O)NCc4cccc(Cl)c4F)c1n32 (single isomer, unassigned)	2.4

Look up IC50: CCN1CN2CC(OC)c3c(C(=O)NCc4ccc(F)c(Cl)c4F)c(=O)c(O)c(n32)C1=O (single isomer, unassigned) 1.5

Consider the compound CCN1CN2CCCc3c(C(=O)NCc4ccc(F)cc4F)c(=O)c(O)c(n32)C1=O and give its measured IC50. 11.4

---

- Test system: HIV-1 (NL4-3 strain)
- METHOD: Assay for Inhibition of HIV Replication (VIKING, MT4-gag-GFP reporter cells)
- Type: cell-based
- MEASUREMENT CONTEXT: Human immunodeficiency virus 1, NL43, 0% normal human serum; MT4-GFP cells infected with HIV-1 NL4-3; infected cells at 48 h / 24 h; read-out: VIKING IP50 (nM) with 0% NHS
y if IC50 is below 2 nM. n if not; exact matches included in n.

Example results:
MOLECULE	ASSIGNED LABEL
COCCN1CN2CC(OC)c3c(C(=O)NCc4ccccc4F)c(=O)c(O)c(n32)C1=O (single isomer, unassigned)	y
CN1CN2CCc3c(C(=O)NCc4c(F)ccc(Cl)c4F)c(=O)c(O)c(n32)C1=O	y
CCN1Cn2ccc3c(C(=O)NCc4ccc(F)cc4F)c(=O)c(O)c(n32)C1=O	n
COC1CN2CN(C)C(=O)c3c(O)c(=O)c(C(=O)NCc4ccc(F)cc4F)c1n32 (single isomer, unassigned)	n
CCN1CN2CCc3c(C(=O)NCc4ccc(F)cc4F)c(=O)c(O)c(n32)C1=O	n

Now consider the entry below.
IC50 strictly < 2 nM for this molecule? COCCN1CN2CC(OC)c3c(C(=O)NCc4ccc(F)c(Cl)c4F)c(=O)c(O)c(n32)C1=O (single isomer, unassigned) y

---

- System: HIV-1 (NL4-3 strain)
- METHOD: Assay for Inhibition of HIV Replication (VIKING, MT4-gag-GFP reporter cells)
- Assay type: cell-based
- MEASUREMENT CONTEXT: Human immunodeficiency virus 1, NL43, 0% normal human serum; MT4-GFP cells infected with HIV-1 NL4-3; infected cells at 48 h / 24 h; read-out: VIKING IP50 (nM) with 0% NHS
Checkbox rule: IC50 lower than 2 nM = 1; IC50 not lower than 2 nM = 0.

Example results:
MOLECULE	ASSIGNED LABEL
CCN1CN2CC(OC)c3c(C(=O)NCc4cccc(Cl)c4F)c(=O)c(O)c(n32)C1=O (single isomer, unassigned)	1
COC1CN2n3c(c(O)c(=O)c(C(=O)NCc4ccc(F)cc4F)c31)C(=O)N(C)C21CCOC1 (stereo not shown)	0
COC1CN2CN(CC3CC3)C(=O)c3c(O)c(=O)c(C(=O)NCc4ccc(F)cc4F)c1n32 (single isomer, unassigned)	1
COC1CN2CN(C(C)C)C(=O)c3c(O)c(=O)c(C(=O)NCc4ccc(F)cc4F)c1n32 (stereo not shown)	0
COCCN1CN2C(=O)N(C)Cc3c(C(=O)NCc4ccc(F)cc4F)c(=O)c(O)c(n32)C1=O	1
COC1CN2CN(C)C(=O)c3c(O)c(=O)c(C(=O)NCc4ccc(F)c(Cl)c4)c1n32 (single isomer, unassigned)	1

Please check: IC50 for CCN1CN2CC(OC)c3c(C(=O)NCc4ccc(F)cc4F)c(=O)c(O)c(n32)C1=O (single isomer, unassigned) [Compound 23] , strictly under 2 nM or not? 0
